Source of measurements: PubChem BioAssay AID192

# System: BDF1 mice, B16 melanoma ip, median survival T/C
# methodDescription: NCI In Vivo Anticancer Drug Screen. Data for tumor model B16 Melanoma (intraperitoneal) in B6D2F1 (BDF1) mice
# conditionParameters: endpoint: median survival time; dose: 12.5 mg/kg/injection; schedule: Q01DX009 (ip); vehicle: Klucel (hydroxypropylcellulose) (HPC); higher = longer survival
Toxic doses and inconclusive results are not listed.
Attribute: T/C
recordedMetric: T/C

molecule	experimentalSystem	result
CS(=O)(=O)OCc1c(O)c2c(c(O)c1COS(C)(=O)=O)C(=O)C=CC2=O	BDF1 mice, B16 melanoma ip, median survival T/C	106 % of control
Cc1ccc(S(=O)(=O)N/N=C(\C(=O)O)c2ccccc2)cc1	BDF1 mice, B16 melanoma ip, median survival T/C	95 % of control
COC1=C(N=[N+]=[N-])C(=O)C(OC)=C(N=[N+]=[N-])C1=O	BDF1 mice, B16 melanoma ip, median survival T/C	111 % of control
CCCCCCCCCCCCCCCCNS(=O)(=O)c1ccc(NN)cc1	BDF1 mice, B16 melanoma ip, median survival T/C	93 % of control
CCCCCCC/C=C/C(=O)OC1C(OC2C(OC(CCCCCCC)CC(=O)OC(CCCCCCC)CC(=O)O)OC(C)C(O)C2O)OC(C)C(O)C1O (stereo unspecified)	BDF1 mice, B16 melanoma ip, median survival T/C	90 % of control
CCC(CC)CC1CN2CCc3cc(OC)c(OC)cc3C2CC1(O)CC (stereo unspecified)	BDF1 mice, B16 melanoma ip, median survival T/C	102 % of control
CC(=O)N(C(C)=O)c1ccc(N=Nc2ccccc2C)cc1C	BDF1 mice, B16 melanoma ip, median survival T/C	94 % of control
CC(C)(C)C1CCCCC1	BDF1 mice, B16 melanoma ip, median survival T/C	96 % of control
O=C(C(=O)c1ccc(Br)cc1)c1ccc(Br)cc1	BDF1 mice, B16 melanoma ip, median survival T/C	108 % of control
O=C1N(c2nncs2)CCN1[N+](=O)[O-]	BDF1 mice, B16 melanoma ip, median survival T/C	91 % of control
O=C(O)C1CCCCC1C(=O)Nc1cccc(C(F)(F)F)c1 (stereo unspecified)	BDF1 mice, B16 melanoma ip, median survival T/C	114 % of control

---

# System: BDF1 mice, B16 melanoma ip, median survival T/C
# methodDescription: NCI In Vivo Anticancer Drug Screen. Data for tumor model B16 Melanoma (intraperitoneal) in B6D2F1 (BDF1) mice
# conditionParameters: endpoint: median survival time; dose: 200.0 mg/kg/injection; schedule: Q01DX009 (ip); vehicle: Klucel (hydroxypropylcellulose) (HPC); higher = longer survival
Inconclusive results and toxic doses are left out.

compound	experimentalSystem	T/C
CCOc1ccc(NC(=O)Nc2cccc(Cl)c2)cc1	BDF1 mice, B16 melanoma ip, median survival T/C	93 % of control
O=C(Nc1ccccc1F)c1ccc(Cl)c(Cl)c1	BDF1 mice, B16 melanoma ip, median survival T/C	90 % of control
Cc1c(Cl)cccc1NC(=O)c1cccc(C(=O)Nc2cccc(Cl)c2C)c1	BDF1 mice, B16 melanoma ip, median survival T/C	103 % of control
CC1(C)NC(=O)C(/C=C/c2ccccc2)O1 (stereo unspecified)	BDF1 mice, B16 melanoma ip, median survival T/C	86 % of control
Cc1ccc(C)c(NC(=O)Nc2ccccc2)c1	BDF1 mice, B16 melanoma ip, median survival T/C	110 % of control
CCOC12c3cc(OC)ccc3N(S(=O)(=O)c3ccc(C)cc3)CC1C2(Br)Br (stereo unspecified)	BDF1 mice, B16 melanoma ip, median survival T/C	89 % of control
O=C(O)c1ccccc1C(=O)Nc1ccc([N+](=O)[O-])cc1Cl	BDF1 mice, B16 melanoma ip, median survival T/C	96 % of control
COc1ccc(C2NC(=O)c3ccccc3N2)c(OC)c1OC (stereo unspecified)	BDF1 mice, B16 melanoma ip, median survival T/C	112 % of control
O=C(O)[C@@H]1[C@H]2C[C@H]3c4[nH]c5ccccc5c4CCN3C[C@@H]2CC[C@@H]1O	BDF1 mice, B16 melanoma ip, median survival T/C	92 % of control
CCOC(=O)c1ccc(NC(=O)Nc2ccc(Cl)cc2)cc1	BDF1 mice, B16 melanoma ip, median survival T/C	106 % of control
O=C1c2ccccc2S(=O)(=O)c2ccc(Br)cc21	BDF1 mice, B16 melanoma ip, median survival T/C	90 % of control
